- Protocol Summary: Inhibition of almond beta-glucosidase using p-nitrophenyl glycoside as substrate assessed as release of p-nitrophenol by spectrometric analysis
- Design: species or system Prunus dulcis
Measured Metric: log10(IC50) (log10 of the value in nM)
log10 IC50, nM

Completed entries (count: 8):
>  <Compound>
CCCCCC[C@@H](O)[C@H]1N[C@H](CO)[C@@H](O)[C@@H]1O

>  <Endpoint Value>
2.30

$$$$
>  <Compound>
CCCCCC[C@H](O)[C@H]1N[C@H](CO)[C@@H](O)[C@@H]1O

>  <Endpoint Value>
2.81

$$$$
>  <Compound>
CCCCCCC[C@@H](O)[C@H]1N[C@H](CO)[C@@H](O)[C@@H]1O

>  <Endpoint Value>
2.08

$$$$
>  <Compound>
OCCC[C@@H](O)CCCCCCCC[C@H](O)C1N[C@H](CO)[C@@H](O)[C@@H]1O (single isomer, unassigned)

>  <Endpoint Value>
3.26

$$$$
>  <Compound>
OCCC[C@@H](O)CCCCCCCC[C@H](O)[C@@H]1N[C@@H](CO)[C@H](O)[C@H]1O

>  <Endpoint Value>
4.96

$$$$
>  <Compound>
OCCC[C@@H](O)CCCCCCCC[C@@H](O)[C@H]1N[C@H](CO)[C@@H](O)[C@@H]1O

>  <Endpoint Value>
2.72

$$$$
>  <Compound>
OCCC[C@H](O)CCCCCCCC[C@@H](O)[C@H]1N[C@H](CO)[C@@H](O)[C@@H]1O

>  <Endpoint Value>
2.84

$$$$
>  <Compound>
OCCC[C@H](O)CCCCCCCC[C@H](O)[C@H]1N[C@H](CO)[C@@H](O)[C@@H]1O

>  <Endpoint Value>
3.45

$$$$

Task: log10(IC50) lookup needed for "CCCCCCC[C@H](O)[C@H]1N[C@H](CO)[C@@H](O)[C@@H]1O" , thanks.
Output: 2.73
